- Assay System: DOR (Rattus norvegicus)
- Sequence (P33533 whole entry): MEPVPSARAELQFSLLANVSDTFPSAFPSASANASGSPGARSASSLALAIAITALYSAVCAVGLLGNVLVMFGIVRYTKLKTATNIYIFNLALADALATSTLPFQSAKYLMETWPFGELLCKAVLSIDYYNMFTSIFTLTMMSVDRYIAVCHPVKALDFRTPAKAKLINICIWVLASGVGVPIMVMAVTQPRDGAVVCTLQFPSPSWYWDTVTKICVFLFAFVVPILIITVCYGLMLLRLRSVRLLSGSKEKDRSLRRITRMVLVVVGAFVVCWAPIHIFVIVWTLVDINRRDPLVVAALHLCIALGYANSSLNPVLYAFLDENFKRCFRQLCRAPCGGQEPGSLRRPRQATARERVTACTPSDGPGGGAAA
- Experiment Summary: in vivo
Reported Metric: EC50 (µM)
Numbers only, in µM.

# EC50 (compound: NC(=O)c1ccc2c(c1O)[C@]13CCN(CC4CC4)[C@H](C2)[C@]1(O)CCC(=O)C3 [Samidorphan] ) is 0.0547

----------
- Assay System: UniProt:P34975
- Sequence (P34975 whole entry): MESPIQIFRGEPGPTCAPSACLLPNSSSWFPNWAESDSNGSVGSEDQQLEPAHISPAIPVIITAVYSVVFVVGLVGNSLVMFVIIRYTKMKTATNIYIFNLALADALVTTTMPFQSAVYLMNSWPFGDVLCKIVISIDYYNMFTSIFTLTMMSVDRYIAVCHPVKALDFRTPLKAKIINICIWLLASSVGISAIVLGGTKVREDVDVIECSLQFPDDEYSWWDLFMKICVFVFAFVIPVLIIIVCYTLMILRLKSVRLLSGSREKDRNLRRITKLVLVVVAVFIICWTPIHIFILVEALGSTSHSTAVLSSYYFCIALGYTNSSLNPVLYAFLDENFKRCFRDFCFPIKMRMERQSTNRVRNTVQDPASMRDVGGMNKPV
- Experiment Summary: In vivo receptor occupancy in rat brain, triple-tracer UPLC-HRAM MS
Reported Metric: pEC50
Numbers only, as −log10 of the molar value.

# pEC50 (molecule: `NC(=O)c1ccc2c(c1O)[C@]13CCN(CC4CC4)[C@H](C2)[C@]1(O)CCC(=O)C3` ) is 7.37

----------
- Assay System: MOR (Rattus norvegicus, UniProt P33535)
- Sequence (P33535 whole entry): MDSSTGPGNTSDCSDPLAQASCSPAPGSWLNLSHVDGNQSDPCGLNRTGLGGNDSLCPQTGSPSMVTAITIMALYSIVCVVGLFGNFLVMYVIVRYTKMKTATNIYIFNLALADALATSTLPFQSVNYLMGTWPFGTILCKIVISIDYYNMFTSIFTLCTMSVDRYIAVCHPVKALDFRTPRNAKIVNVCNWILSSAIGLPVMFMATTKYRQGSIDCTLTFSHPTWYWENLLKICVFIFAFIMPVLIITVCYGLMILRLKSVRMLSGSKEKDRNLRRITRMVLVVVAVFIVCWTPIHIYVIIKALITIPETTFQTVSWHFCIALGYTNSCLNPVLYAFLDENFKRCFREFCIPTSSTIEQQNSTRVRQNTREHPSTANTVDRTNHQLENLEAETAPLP
- Experiment Summary: In vivo receptor occupancy in rat brain, triple-tracer UPLC-HRAM MS
Reported Metric: EC50

# EC50 (compound: NC(=O)c1ccc2c(c1O)[C@]13CCN(CC4CC4)[C@H](C2)[C@]1(O)CCC(=O)C3 [Samidorphan] ) is 5.1 nM
